- subject_of_test: Transcriptional activator protein LasR (Pseudomonas aeruginosa (strain ATCC 15692 / PAO1 / 1C / PRS 101 / LMG12228))
- assay_method_text: Inhibition of OdDHL-induced LasR activation in Pseudomonas aeruginosa PAKR02 harboring lasB::luxCDABE gene assessed as remaining Las activity at 10^-4 M after 24 hrs by bioluminescence assay
recorded_metric: Activity (%)
Field format: number, assumed %, no unit text.

# example entries with known answers
{"molecule": "CCCCCCCCNC(=O)CC(=O)Nc1ccccn1", "Activity, %": 41}
{"molecule": "CCCCCCCCNC(=O)C(F)C(=O)N[C@H]1CCOC1=O (stereo partly drawn)", "Activity, %": 57}
{"molecule": "CCCCCCCCCN(N)CC(=O)N[C@H]1CCOC1=O", "Activity, %": 55}
{"molecule": "CCCCCCCCCCC[S+]([O-])CC(=O)N[C@H]1CCOC1=O (stereo partly drawn)", "Activity, %": 63}
{"molecule": "CCCCCCCCNC(=O)CC(=O)N[C@@H]1CCC[C@@H]1O", "Activity, %": 55}
{"molecule": "CCCCCCCCCS(=O)(=O)CC(=O)N[C@H]1CCOC1=O", "Activity, %": 72}
{"molecule": "CCCCCCCCCCCS(=O)(=O)CC(=O)N[C@H]1CCOC1=O", "Activity, %": 76}
{"molecule": "CCCCCCCCCC(=O)CC(=O)N[C@H]1CCC(=O)NC1=O", "Activity, %": 71}

Exercise: State the recorded Activity for this entry: `CCCCOCCCNC(=O)CC(=O)N[C@H]1CCOC1=O`
Key: 108

Exercise: Would you kindly share the measured Activity for `CCCCOCCCNC(=O)CC(=O)N[C@@H]1CCC[C@@H]1O` ?
Key: 111

Exercise: Record request: Activity value, item `CCOCCOCCNC(=O)CC(=O)N[C@H]1CCOC1=O`
Key: 61

Exercise: Entry `CCCCCCCCNC(=O)CC(=O)Nc1ccccc1O` : reported Activity = ?
Key: 29

Exercise: GET /values?readout=Activity&item= `CCCCCCCCNC(=O)CC(=O)Nc1ccc2[nH]ncc2c1`
Key: 62
